- study.target: β-secretase(BACE) (Homo sapiens, UniProt P56817)
- Construct: purchased Panvera
- Sequence (P56817 46-501): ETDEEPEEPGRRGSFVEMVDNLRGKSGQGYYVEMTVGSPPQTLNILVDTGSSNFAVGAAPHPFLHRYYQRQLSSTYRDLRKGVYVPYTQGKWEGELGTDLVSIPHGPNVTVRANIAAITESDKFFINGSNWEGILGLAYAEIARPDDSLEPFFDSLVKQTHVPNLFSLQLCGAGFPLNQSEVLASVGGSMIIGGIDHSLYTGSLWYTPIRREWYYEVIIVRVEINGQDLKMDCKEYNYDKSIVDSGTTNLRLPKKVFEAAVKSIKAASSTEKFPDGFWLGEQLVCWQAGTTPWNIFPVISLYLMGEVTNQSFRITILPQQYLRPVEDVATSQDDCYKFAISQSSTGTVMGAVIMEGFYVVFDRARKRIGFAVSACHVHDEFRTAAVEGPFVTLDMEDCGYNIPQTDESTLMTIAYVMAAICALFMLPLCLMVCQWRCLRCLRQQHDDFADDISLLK
- experimental.details: BACE Assay-2 (FS1 substrate, IC50 and Ki)
- Assay type: biochemical
- assay.setup: procedure of Example 159, FS1 substrate; read-out: Ki μM (159)
reported.metric: Ki (µM)
Numbers only, in µM.

Examples with answers:
CC(C)N(C(=O)CCN1Cc2cc(Oc3ccccc3)ccc2N=C1N)C1CCCCC1	1.04
CCCC(CCCC(=O)N(C)C1CCCCC1)N1Cc2cc(Oc3ccccc3)ccc2N=C1N (stereo not shown)	0.22

Provide reported Ki for each item, in the same order as listed.
1. CN(C(=O)CC[C@@H](C1CCCCC1)N1Cc2cc(Oc3ccccc3)ccc2N=C1N)[C@H]1CC[C@@H](C(=O)O)CC1
2. COc1ccccc1-c1ccc2c(c1)CN(C(CCC(=O)N(C)C1CCCCC1)C1CCCCC1)C(N)=N2 (single isomer, unassigned) [Compound 530]

RESULT:
[0.005, 0.13]

The reported numbers originate from patent US8383637B2.
